Where do the numbers come from? From paper PMC5753150.

# system: α-chymotrypsin (EC 3.4.21.1) (Bos taurus)
# Construct: purchased Sigma Aldrich; host or cells: bovine pancreas
# assay: Protease digestion assay with α-chymotrypsin (FL-RP-HPLC)
# Type: in vitro ADME, bovine
# details: α-chymotrypsin (bovine pancreas), 10 mM phosphate buffer pH 7.4 with DMSO, 30 °C, 24 h, FL-RP-HPLC peak integration (Abz, λex 320/λem 420 nm), average of three independent measurements
*1 amine or outer side, *2 acyl side, *3 side chain or, on linkers, in order; H or OH if unused. Where a SMILES comes first, the peptide text is derived from it. [ ]: non-standard residue; d: D form. Leu(5,5,5,5',5',5'-F6) = N[C@@H](CC(C(F)(F)F)C(F)(F)F)C(=O)O; X1 = C[C@@H](CC(F)(F)F)[C@H](N[*:1])C(=O)[*:2]; 2Abz = Nc1ccccc1C(=O)O
readoutKind: Percentage of substrate remaining after incubation for 24 h

molecule	system	reading
C[C@H](NC(=O)[C@H](C)NC(=O)[C@H](C)NC(=O)[C@H](Cc1ccccc1)NC(=O)[C@H](CC(C(F)(F)F)C(F)(F)F)NC(=O)[C@H](C)NC(=O)[C@H](CCCCN)NC(=O)c1ccccc1N)C(=O)N[C@@H](C)C(=O)N[C@@H](CCCCN)C(=O)O [P2-HfLeuFA] (H-[2Abz]KA[Leu(5,5,5,5',5',5'-F6)]FAAAAK-OH)	α-chymotrypsin (EC 3.4.21.1) (Bos taurus)	not digested at all
C[C@H](NC(=O)[C@H](C)NC(=O)[C@H](C)NC(=O)[C@H](Cc1ccccc1)NC(=O)[C@@H](NC(=O)[C@H](C)NC(=O)[C@H](CCCCN)NC(=O)c1ccccc1N)[C@@H](C)CC(F)(F)F)C(=O)N[C@@H](C)C(=O)N[C@@H](CCCCN)C(=O)O [P2-TfIleFA] (H-[2Abz]KA[X1]FAAAAK-OH)	α-chymotrypsin (EC 3.4.21.1) (Bos taurus)	not digested at all
